Where do the numbers come from? From the supplement of paper PMC9170038.

Test system: K4 kissing-loop RNA reporter;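 also: bound reporter read as fluorescence of individual clusters on recovered sequencing chips by microscopy, with normalized cluster intensities fitted with a binding model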
TEST_PROTOCOL: apparent KD of K4 kissing-loop reporter; higher = weaker reporter binding
REPORTED_CONDITIONS: Eterna round: R107; input ligand: arginine 13.2 mM
Assign a class from recorded apparent KD of K4 kissing-loop reporter; defined classes: group 1 = under 0.2 µM, group 2 = from 0.2 µM up to 0.3 µM, group 3 = 0.3 µM and over

Solved cases below.
* UGACUGGACUGAAGGAGCGCGCGAGACAAAGUCUCGAACUUCUAGUGAUGUUAGAAAAUAACGCAGGUAGGUCGCAGUCUAGUCU | group 1
* GUUUUAUAGGAGGAUACCAGUACAAAUAAAGUGCAUUAAUAGUAGAGUGAUGUUCUAAAGUACCCUUGGCAGCUUAGUUUAAGUU [#26 K4 Theophylline B Exclusion] | group 2
* AAGCAGUCCCUUGUAGUCAUCGAAGAUGAACGAGGACCGGUACGGCCGCCACUCGGAGUGAUGUUCCGAAGGCUGCAAAAUAAAA [MatMod 19 - Jieux - Exclusion - Tryptophan A] | group 1
* AAGCAGUCACGCGAAGCCAUCGAAGAUGGUCGAGGACCGGUACGGCCGCCACUCGGAGUGAUGUUCCGAAGACUGCAAAAUAAAA | group 2
* ACAGGAUCGAAAGAUCCUGAGCAGUCAAAACGAGGACCGGUACGGCCGCCACUCGAAUAAGAGAGUGAUGUUCUCGACUGCAAAA [Omei inspired 10 - Reversed #K4Late] | group 3

// return the class label for GCCGUACGCAUGGAUACCAGCAUCAGAUCUUAGUGAUGUUAAGUCGAGAGUUGGUCAAAAUGCCCUUGGCAGCCAUGCGUACGGC
group 1

Class for AGGCACGAGCAAGGAUAUUGAGUAGAGUGAUGUUCUGCCUAAGUUGGCUCGUAAGAGCCUUCUUAGCGAGAAGGUGCUCGUGCCU [#2 Same State - FMN A Attempt #27 (HarryS)] ?
group 3

Quick check: band for CGAGUGAUGUUCGUUCGUAUAUUUGGGUGACAGGAUAUGCGGAAACGCAGAAGGGUCGCCUUCGGGUUACCCGAAUUGGCGUUUU [FMN A Model 2]
group 3
